Target: Disintegrin and metalloproteinase domain-containing protein 17 (Homo sapiens) (UniProt P78536)
Sequence (P78536 215-824 limits assumed): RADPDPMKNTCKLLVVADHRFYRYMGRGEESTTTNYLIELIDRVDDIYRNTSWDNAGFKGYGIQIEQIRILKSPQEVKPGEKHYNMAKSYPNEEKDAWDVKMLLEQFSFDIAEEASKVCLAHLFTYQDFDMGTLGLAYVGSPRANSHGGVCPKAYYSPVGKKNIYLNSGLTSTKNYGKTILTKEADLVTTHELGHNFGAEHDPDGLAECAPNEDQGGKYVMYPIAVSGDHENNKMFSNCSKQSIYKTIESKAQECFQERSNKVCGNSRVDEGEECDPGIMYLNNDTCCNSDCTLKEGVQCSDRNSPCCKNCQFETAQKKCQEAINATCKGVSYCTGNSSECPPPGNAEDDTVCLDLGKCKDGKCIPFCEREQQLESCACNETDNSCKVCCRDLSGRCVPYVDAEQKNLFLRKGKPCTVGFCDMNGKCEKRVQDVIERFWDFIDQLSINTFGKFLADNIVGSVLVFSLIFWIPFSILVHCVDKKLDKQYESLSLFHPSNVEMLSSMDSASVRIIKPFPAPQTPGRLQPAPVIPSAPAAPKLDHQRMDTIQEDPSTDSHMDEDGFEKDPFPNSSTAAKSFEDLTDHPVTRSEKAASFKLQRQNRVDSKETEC
Assay: inhibition of ADAM17 peptide cleavage – biochemical, QFRET, primary screen (AID 720648);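 further: 0% = DMSO-only wells as the low control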
Conditions: recombinant ADAM17, EDANS/DABCYL FRET peptide cleavage; at 6.95 µM; active compounds read high
Out of some 370,000 compounds screened, about 3,100 (0.84%) were called active. What follows is part of a selection rich in actives, with near analogues and random picks from the rest.
Recorded inhibition values for a group of compounds are listed next.
Give just the numeric value; % need not be written.

# count of solved cases: 3
| Compound | Property Measured | Obs Value |
| --- | --- | --- |
| COc1ccccc1CC1(C)C(=O)Nc2ccc(OC(F)(F)F)cc21 (stereo not given) | inhibition | 6.39 |
| Cn1c(Nc2ccccc2)cc(=O)n(C)c1=O | inhibition | -0.84 |
| Cc1ccc(NC(=O)Nc2cc(C)nn2-c2ccccc2)cc1 | inhibition | -1.4 |

Asked: Respond only with inhibition recorded for Cc1ccc(CC2(C)C(=O)Nc3ccc(OC(F)(F)F)cc32)cc1 (stereo not given)
Given back: 8.02

Asked: Respond only with inhibition recorded for CC1(Cc2cccc(C#N)c2)C(=O)Nc2ccc(-c3cccc(C(F)(F)F)c3)cc21 (stereo not given)
Given back: 11.2

Values were extracted from PubChem BioAssay AID720648.
